# studySystem: T1, human PCSK9 (human, UniProt Q8NBP7 31-692, limits assumed)
# T1 construct: also called hPCSK9; huPCSK9
# T1 sequence (Q8NBP7 31-692 limits assumed): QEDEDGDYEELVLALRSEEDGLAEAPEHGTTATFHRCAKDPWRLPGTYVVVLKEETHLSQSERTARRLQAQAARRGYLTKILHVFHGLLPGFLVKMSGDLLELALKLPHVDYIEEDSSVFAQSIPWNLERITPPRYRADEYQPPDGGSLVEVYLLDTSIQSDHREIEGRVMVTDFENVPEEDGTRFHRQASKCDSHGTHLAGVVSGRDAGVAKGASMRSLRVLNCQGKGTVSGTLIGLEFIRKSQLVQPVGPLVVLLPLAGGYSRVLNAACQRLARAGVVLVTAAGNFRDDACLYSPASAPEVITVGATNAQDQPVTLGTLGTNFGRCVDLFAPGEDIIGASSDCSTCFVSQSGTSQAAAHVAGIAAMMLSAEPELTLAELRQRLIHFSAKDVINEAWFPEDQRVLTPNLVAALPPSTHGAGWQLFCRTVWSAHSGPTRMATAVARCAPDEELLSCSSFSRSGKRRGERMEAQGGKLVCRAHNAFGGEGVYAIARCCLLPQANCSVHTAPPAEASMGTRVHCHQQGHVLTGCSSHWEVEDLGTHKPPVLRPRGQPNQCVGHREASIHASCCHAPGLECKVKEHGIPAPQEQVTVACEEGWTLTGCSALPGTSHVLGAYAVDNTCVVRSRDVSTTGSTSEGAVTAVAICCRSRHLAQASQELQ
# experiment: SPR Biacore 3000, captured IgG, hPCSK9 injected, pH 5.5
Quick list: kon per entry.
Value expressed in M⁻¹ s⁻¹; do not type the unit.

Here are 2 binders together with their reported answers.
5L1724H23 (antibody, V domains shown, Triple histidine mutant of h5A10; Only CDRs printed; Full-length IgG) VH: QVQLVQSGAEVKKPGASVKVSCKASGYTFTSYYMHWVRQAPGQGLEWMGEIHPSGGRTNYNEKFKSRVTMTRDTSTSTVYMELSSLRSEDTAVYYCARERPLYAMDYWGQGTTVTVSS VL: DIQMTQSPSSLSASVGDRVTITCKASQDVHTAVAWYQQKPGKAPKLLIYSASHRYTGVPSRFSGSGSGTDFTFTISSLQPEDIATYYCQQRYSTPRTFGQGTKLEIK : 203000
6L1721 (antibody, V domains shown, L1L3-based mutant; Tested as full-length IgG) VH: QVQLVQSGAEVKKPGASVKVSCKASGYTFTSYYMHWVRQAPGQGLEWMGEISPFGGRTNYNEKFKSRVTMTRDTSTSTVYMELSSLRSEDTAVYYCARERPLYASDLWGQGTTVTVSS VL: DIQMTQSPSSLSASVGDRVTITCRASQGIHSALAWYQQKPGKAPKLLIYHASYRYTGVPSRFSGSGSGTDFTFTISSLQPEDIATYYCQQRYSLWRTFGQGTKLEIK : 166000

Field: next binder
Task: Quick one: give measured kon for 6L21H2335 (antibody, V domains shown) VH: QVQLVQSGAEVKKPGASVKVSCKASGYTFTSYYMHWVRQAPGQGLEWMGEIHPFGGRTNYNEKFKSRVTMTRDTSTSTVYMELSSLRSEDTAVYYCARERPLHASDLWGQGTTVTVSS VL: DIQMTQSPSSLSASVGDRVTITCRASQGISSALAWYQQKPGKAPKLLIYHASYRYTGVPSRFSGSGSGTDFTFTISSLQPEDIATYYCQQRYSLWRTFGQGTKLEIK
Result: 655000
